Assign GI50 to each entry below.
tested on: U-251; assay: NCI tumour cell line growth inhibition, 48 h
Calls of active or inactive are those of the source. Rule as the data show it: active = GI50 up to about 1.1 µM and inactive = higher. Peptide text beside a SMILES is read from it. * marks the point of attachment. X27 = Clc1c(Cl)c(Cl)c(O*)c(Cl)c1Cl; Boc = CC(C)(C)OC(=O)*; OBn = c1ccc(CO*)cc1; Bn = c1ccc(C*)cc1

Report measured GI50; entry is N#CC(NNC(=O)c1c(Cl)c(Cl)c(Cl)c(Cl)c1-c1nc2cc(C(=O)c3ccccc3)ccc2[nH]1)c1ccccc1 (stereo not drawn)
15.8 µM (inactive)

Find the measured GI50 of COc1ccc(C2OC(N)=C(C#N)C3=C2CCCC3C)cc1OC (stereo not drawn) and report it.
> 100 µM (inactive)

Specify measured GI50 for O=c1ssc2c1Nc1c(ssc1=O)S2 .
16.4 µM (inactive)

Answer with reported GI50 of CCc1cccc(C)c1NC(=O)C1=C(C)NC(C)=C(C(=O)Nc2c(C)cccc2CC)C1c1ccc2c(c1)OCO2
15.2 µM (inactive)

Hello, please tell me recorded GI50 for this one: CC[C@@H]1NC(C(=O)OC)Cc2c1[nH]c1ccccc21 (stereo partly drawn)
> 100 µM (inactive)

Please report GI50 for the following compound: CN(C(=O)C12C3(C(=O)C(C)(C)C)C4C5(C#N)C3C1(C(=O)C(C)(C)C)C5C42C(=O)C(C)(C)C)C(C)(C)C (stereo not drawn)
> 50 µM (inactive)

Return GI50 (reported value) for this compound: Cc1cc(NS(=O)(=O)c2ccc(NC(NC(=O)C(C(F)(F)F)C(F)(F)F)(C(F)(F)F)C(F)(F)F)cc2)no1
> 100 µM (inactive)

Read the entry CC(C)CC(NC(=O)C(CCC(=O)OCc1ccccc1)NC(=O)OC(C)(C)C)C(=O)NC(COCc1ccccc1)C(=O)NC(Cc1ccccc1)C(=O)Oc1c(Cl)c(Cl)c(Cl)c(Cl)c1Cl (stereo not drawn) (Boc-E(OBn)LS(Bn)F-X27; configuration not given here) and write its reported GI50.
18.5 µM (inactive)

---

tested on: CAKI-1; experiment: NCI tumour cell line growth inhibition, 48 h
Activity calls are given as the source filed them. No stated cut-off is given here; in the data, active = GI50 up to about 1.1 µM and inactive = higher.
Hello, when you answer, please use one of the following outcomes: active, inactive

Write down the call the test reported for this compound. Item: Cc1ccsc1/C=N/Nc1cnccn1
inactive

Recorded test call requested for C=C(Cl)/C(=C/Cl)CCC(Br)C(C)(C)Cl.C=C(Cl)/C(=C\Cl)CCC(Br)C(C)(C)Cl (stereo unspecified)
inactive

Look up the recorded call for O=c1[nH]c(=O)n(C2CC(O)C(COP(=O)(OCC(Cl)(Cl)Cl)OCC(Cl)(Cl)Cl)O2)cc1F (stereo unspecified) in this test.
active

Short answer needed: outcome of this test for O=C(OCC(OC(=O)c1ccccc1)C1CC(C2(O)CCCCC2)C(=O)O1)c1ccccc1 (stereo unspecified) ?
inactive

Recorded call for N#Cc1nc(CCN2C(=O)c3ccccc3C2=O)oc1N ?
inactive

Dear all, I need the recorded test outcome for Cc1c(OCc2cccc3ccccc23)ccc2c(O)cc(=S)oc12 , thank you.
inactive

---

Provide the recorded GI50 for the entries that follow.
system: LXFL 529; assay: NCI tumour cell line growth inhibition, 48 h
The source made the active and inactive calls. No stated cut-off is given here; in the data, active = GI50 up to about 1.1 µM and inactive = higher.

Output GI50 of CC[C@@H]1NC(C(=O)OC)Cc2c1[nH]c1ccccc21 (some centres not stated)
> 100 µM (inactive)

Please look at this molecule and report its GI50: Nc1nc2c(ncn2CCOC(c2ccccc2)P(=O)(O)O)c(=O)[nH]1 (configuration not stated)
> 100 µM (inactive)

Please look at this molecule and report its GI50: Cc1cccc(C(C)(C)C)c1NC(=O)CC1C(=O)Nc2ccccc2S1(=O)=O (configuration not stated)
12 µM (inactive)

Quickly give me recorded GI50 for COc1ccc(C2S/C(=C\c3ccccc3)C(=O)N2NC(=O)Cc2ccccc2)cc1 (configuration not stated)
> 100 µM (inactive)

Provide GI50 value for the following molecule: CS(=O)(=O)N(N(CCCl)S(=O)(=O)c1ccccc1)S(C)(=O)=O
> 100 µM (inactive)

Given O=C(NC(=O)c1cc2cc(Br)cc(Br)c2oc1=O)Oc1ccccc1 , respond with its GI50.
> 100 µM (inactive)

Find the measured GI50 of O=Cn1c2ccccc2c2ccccc21 and report it.
> 100 µM (inactive)

Give the reported value of GI50 for this record: COc1cc([C@@H]2c3cc4c(cc3[C@@H](OC3OC5COC(C)OC5C(O)C3O)[C@H]3COC(=O)[C@H]23)OCO4)cc(OC)c1O (some centres not stated)
26.5 µM (inactive)

Determine from records and report GI50 for Cc1cnc(-c2ccccc2)o1
> 100 µM (inactive)

Note down GI50 recorded for O=C(NCc1ccccc1)c1cc2ccc(O)c(O)c2cn1
16.9 µM (inactive)

Using the record for O=[N+]([O-])c1ccc(C2N3CCCCC3[C@H]3CCCCN23)cc1 (some centres not stated) , state its measured GI50.
> 100 µM (inactive)

Specify GI50 for COc1cc(C2c3cc4c(cc3[C@H](NC(=O)c3cccs3)C3COC(=O)[C@H]23)OCO4)cc(OC)c1OC (some centres not stated) and stop.
0.0296 µM (active)
